Here, each record is paired with measured IC50 data.
target: EGFR del19 T790M C797S protein in Ba/F3 cells (Homo sapiens, UniProt P00533, C797S/DEL746-750/T790M); experiment: pEGFR assay (AlphaScreen Surefire, EGFR Tyr1068 phosphorylation)
Sequence (P00533 with tags, fused parts or gaps C797S/DEL746-750/T790M limits assumed): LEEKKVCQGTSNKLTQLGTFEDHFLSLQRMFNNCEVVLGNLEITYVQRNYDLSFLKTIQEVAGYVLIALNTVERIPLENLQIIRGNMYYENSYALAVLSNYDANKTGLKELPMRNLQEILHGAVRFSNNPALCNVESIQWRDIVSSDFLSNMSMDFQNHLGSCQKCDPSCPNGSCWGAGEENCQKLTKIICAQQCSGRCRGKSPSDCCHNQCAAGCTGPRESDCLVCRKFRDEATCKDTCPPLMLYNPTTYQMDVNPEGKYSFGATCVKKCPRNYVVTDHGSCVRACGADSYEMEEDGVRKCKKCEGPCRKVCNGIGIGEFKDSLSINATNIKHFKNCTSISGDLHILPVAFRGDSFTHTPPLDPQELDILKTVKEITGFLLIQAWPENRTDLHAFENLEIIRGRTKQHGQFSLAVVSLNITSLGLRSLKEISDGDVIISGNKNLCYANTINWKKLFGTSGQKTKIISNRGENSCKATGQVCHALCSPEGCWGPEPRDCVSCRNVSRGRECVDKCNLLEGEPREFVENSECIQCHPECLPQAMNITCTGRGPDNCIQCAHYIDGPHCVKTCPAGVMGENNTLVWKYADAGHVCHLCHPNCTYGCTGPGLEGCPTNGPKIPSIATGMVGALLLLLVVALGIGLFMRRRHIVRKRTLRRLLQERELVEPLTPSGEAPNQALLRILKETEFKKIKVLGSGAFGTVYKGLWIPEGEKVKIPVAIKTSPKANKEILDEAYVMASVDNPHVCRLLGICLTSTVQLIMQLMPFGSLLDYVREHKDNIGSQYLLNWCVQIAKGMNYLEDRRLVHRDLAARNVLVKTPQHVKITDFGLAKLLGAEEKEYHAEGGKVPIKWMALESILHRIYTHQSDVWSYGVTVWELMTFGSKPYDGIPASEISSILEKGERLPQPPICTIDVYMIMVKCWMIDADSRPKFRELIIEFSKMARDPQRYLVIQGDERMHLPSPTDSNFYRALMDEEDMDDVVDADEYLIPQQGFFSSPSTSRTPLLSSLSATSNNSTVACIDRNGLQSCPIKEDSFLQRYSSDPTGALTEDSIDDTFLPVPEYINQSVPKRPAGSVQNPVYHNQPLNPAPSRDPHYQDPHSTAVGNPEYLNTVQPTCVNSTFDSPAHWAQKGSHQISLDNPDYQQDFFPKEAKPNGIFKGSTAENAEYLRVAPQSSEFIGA
Numeric answer only, unit nM assumed.

Use the examples below as a reference point.
# compoundString, IC50 / nM
measured = [
    ("COCCN1CCC(c2ccc3c(c2)[nH]/c(=N\\C(=O)c2ccnc(-c4cccnc4)c2)n3CC(C)(C)O)CC1", 2),
    ("Cc1c(-c2cc(C(=O)/N=c3\\[nH]c4ccccc4n3C3CCCC3)ccn2)cnn1C", 13),
    ("CCOC(=O)CCc1ccc2c(c1)[nH]/c(=N\\C(=O)c1ccnc(-c3cnn(C)c3)c1)n2CC(C)(C)O", 68),
    ("COc1ccccc1-c1cc(C(=O)/N=c2\\[nH]c3cc(CN4CCOCC4)ccc3n2[C@H]2CCC[C@@H](O)C2)ccn1", 4),
]

Consider the compound COc1ccccc1-c1cc(C(=O)/N=c2\[nH]c3cc(CN4CCOCC4)ccc3n2CC(C)(C)O)ccn1 and give its measured IC50.
1

Consider the compound COc1ccccc1-c1cc(C(=O)/N=c2\[nH]c3ccccc3n2[C@H]2CC[C@H](O)[C@H](O)C2)ccn1 and give its measured IC50.
4

Consider the compound Cn1cc(-c2cc(C(=O)/N=c3\[nH]c4ccccc4n3C3CCCCC3)ccn2)cn1 and give its measured IC50.
9

====

target: EGFR (mutated) 695-1022, T790M, C797S, L858R (Homo sapiens (Human), UniProt P00533, C797S/L858R/T790M); assay: Biochemical EGFR inhibition assay (TR-FRET, poly-GT substrate), EGFR T790M C797S L858R; conditions: read-out: LR_TM_CS (5 μM ATP) IC50; 5 μM ATP
Sequence (P00533 695-1022 T790M/C797S/L858R): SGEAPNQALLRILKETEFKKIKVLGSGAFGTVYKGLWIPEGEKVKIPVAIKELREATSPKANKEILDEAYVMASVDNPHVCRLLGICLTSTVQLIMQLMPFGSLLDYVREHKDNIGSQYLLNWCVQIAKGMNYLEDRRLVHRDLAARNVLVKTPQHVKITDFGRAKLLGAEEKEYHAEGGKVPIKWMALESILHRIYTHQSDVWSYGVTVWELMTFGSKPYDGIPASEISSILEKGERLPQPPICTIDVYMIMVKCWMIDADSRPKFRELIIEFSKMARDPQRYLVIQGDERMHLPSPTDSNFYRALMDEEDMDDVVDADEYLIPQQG
quantityMeasured: IC50 (nM)
Numeric answer only, unit nM assumed.

Use the examples below as a reference point.
# compound, unitSymbol, IC50
measured = [
    ("COc1ccccc1-c1cc(C(=O)/N=c2\\[nH]c3cc(CN4CCOCC4)ccc3n2CC(C)(C)O)ccn1 [I-060]", "nM", 0.7),
    ("Cn1cc(-c2cc(C(=O)/N=c3\\[nH]c4ccccc4n3[C@H]3CCC[C@H](O)C3)ccn2)cn1 [I-137]", "nM", 0.8),
    ("Cn1cc(-c2cc(C(=O)/N=c3\\[nH]c4ccccc4n3[C@H]3C[C@H](O)C[C@H](O)C3)ccn2)cn1 [I-207]", "nM", 3),
    ("O=C(/N=c1\\[nH]c2ccccc2n1[C@H]1CC[C@@H](O)CC1)c1ccnc(-c2coc3cccnc23)c1 [I-156]", "nM", 13.3),
    ("O=C(/N=c1\\[nH]c2ccccc2n1[C@H]1CC[C@@H](O)CC1)c1ccnc(-c2ccccc2F)c1 [I-141]", "nM", 2),
]

Consider the compound O=C(/N=c1\[nH]c2ccccc2n1[C@H]1CC[C@@H](O)CC1)c1ccnc(-c2cccn3ncnc23)c1 [I-179] and give its measured IC50.
33.8

Consider the compound COc1ccccc1-c1cc(C(=O)/N=c2\[nH]c3ccccc3n2[C@@H]2CC[C@H](O)[C@H](O)C2)ccn1 [I-144] and give its measured IC50.
6.9

Consider the compound O=C(/N=c1\[nH]c2ccccc2n1[C@H]1CC[C@@H](O)CC1)c1ccnc(-c2cnn(C(F)F)c2)c1 [I-201] and give its measured IC50.
1.2
